target: OR51E1 olfactory receptor (Homo sapiens); construct: expressed in transfected cells; experiment: Butyric acid olfactory receptor antagonist cell-based dose-response vs butyric acid EC80; details: butyric acid at EC80; Table 5
So basically: is IC50 under 100 µM? Then 1. Not under? Then 0.

# COMPOUND, GROUP
records = [
    ("CCOCOC1CCCCCCCCCCC1 [(ethoxymethoxy)cyclododecane]", 1),
    ("CC=CC(=O)C1C(C)C=CCC1(C)C (centres unmarked)", 0),
    ("C/C=C/C(=O)C1C(C)=CCCC1(C)C (racemic)", 1),
    ("C[C@@H]1CCCCCCCCCCCCC(=O)C1 [(−)-(3R)-3-methyl-1-cyclopentadecanone]", 1),
    ("C/C=C/C(=O)C1=C(C)CCCC1(C)C", 0),
    ("CC1CCCCCCCCCCCCC(=O)C1 (racemic) [(+−)-3-methylcyclopentadecanone]", 0),
    ("COC1CCCCCCCCCCC1", 1),
    ("C[C@@H]1CC=CCCCCCCCCCC(=O)C1", 1),
    ("CC(=O)OC(C)CC(C)(C)c1ccccc1 (centres unmarked) [(4-methyl-4-phenylpentan-2-yl) acetate]", 1),
]

Would you kindly look at the next entry?
Here's an entry: CC(=O)O[C@@H]1C(C)(C)CCC[C@@]12CC=C(C)C[C@@H]2C . Is its IC50 below 100 µM? 1

====

target: Olfr738 (Mus musculus); test: Indole antagonist dose-response, cAMP HTRF in HEK293T, vs indole EC80; type: cell-based; conditions: Table 22, first listing (r7-r45); vs indole EC80; read-out: Olfr738 IC50
Sequence (L7N1X7 entry or part of it): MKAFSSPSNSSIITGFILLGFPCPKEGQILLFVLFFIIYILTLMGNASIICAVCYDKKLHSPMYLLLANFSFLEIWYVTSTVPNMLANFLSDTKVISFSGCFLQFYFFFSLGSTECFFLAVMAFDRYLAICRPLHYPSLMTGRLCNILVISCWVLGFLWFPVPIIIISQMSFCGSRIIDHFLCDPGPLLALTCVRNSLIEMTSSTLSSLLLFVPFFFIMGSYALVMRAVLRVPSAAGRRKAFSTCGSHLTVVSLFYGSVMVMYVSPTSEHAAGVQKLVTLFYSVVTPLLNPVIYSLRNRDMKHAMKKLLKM
Let's look at some compounds and their measured pIC50.
Scale: negative log10 of molar concentration, which is what pIC50 denotes.

# COMPOUND, TEST_SYSTEM, MEASURED_ATTRIBUTE, READING
records = [
    ("CC(C)(C)C1CCC(=O)CC1", "Olfr738 (Mus musculus)", "pIC50", 4.37),
]

Give the measured pIC50 of c1nc2c(o1)CCCCCCCCCC2 . 5.03

Dear colleague, I am looking for the recorded pIC50 of the following compound: CC1(C)CCC[C@]2(C)CC(=O)CC[C@@H]12 (racemic) 5.56

I would be grateful if you could share the reported pIC50 for C=C1CC[C@H]2O[C@]2(C)CC[C@@H]2[C@@H]1CC2(C)C . 4.74

Given the entry CC1C(C)(C)C2=C(C(=O)CCC2)C1(C)C (stereo not drawn) , report its measured pIC50. 4.67

Look up pIC50: C/C=C/C(=O)C1C(C)=CCCC1(C)C (racemic) 4.00

====

Target: OR51E1 olfactory receptor (Homo sapiens)
Construct: expressed in transfected cells
Sequence (Q8TCB6 1-318): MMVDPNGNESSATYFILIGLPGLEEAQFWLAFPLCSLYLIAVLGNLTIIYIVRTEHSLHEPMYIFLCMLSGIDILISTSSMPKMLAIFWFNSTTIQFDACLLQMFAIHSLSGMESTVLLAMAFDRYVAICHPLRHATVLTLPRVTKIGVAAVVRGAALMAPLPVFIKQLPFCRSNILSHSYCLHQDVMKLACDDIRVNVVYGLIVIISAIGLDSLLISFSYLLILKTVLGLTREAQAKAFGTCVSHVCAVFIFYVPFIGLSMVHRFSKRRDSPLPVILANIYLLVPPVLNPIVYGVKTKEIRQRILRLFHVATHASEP
Assay: Butyric acid olfactory receptor antagonist cell-based dose-response vs butyric acid EC80
Conditions: Table 21
MEASURED_ATTRIBUTE: IC50 (µM)
// return numeric value only (unit: µM, not printed)

Solved entries (count: 3):
# COMPOUND, READING
rows = [
    ("CC(=O)OC(C)C1CC(C)C23CCC(CC12)C3 (stereo not drawn)", 97),
    ("CC(=O)OC(C)C1(C)CC(C)C23CCC(CC12)C3 (stereo not drawn)", 54.8),
    ("CC(=O)C1(C)CC(C)C23CCC(CC12)C3 (stereo not drawn)", 60.5),
]

Requested read-out: IC50. Entry: CC(=NO)C1C(C)C(C)C23CCC(CC12)C3 (stereo not drawn) 76.6

Consider the compound CC1C(C)C23CCC(CC2C1(C)C=O)C3 (stereo not drawn) and give its measured IC50. 270

Quick one: IC50 for CC(=O)OCC1(C)C(C)C(C)C23CCC(CC12)C3 (stereo not drawn) ? 60.8

====

Target: OR51E1 olfactory receptor (Homo sapiens, UniProt Q8TCB6)
Construct: expressed in transfected cells
Sequence (Q8TCB6 1-318): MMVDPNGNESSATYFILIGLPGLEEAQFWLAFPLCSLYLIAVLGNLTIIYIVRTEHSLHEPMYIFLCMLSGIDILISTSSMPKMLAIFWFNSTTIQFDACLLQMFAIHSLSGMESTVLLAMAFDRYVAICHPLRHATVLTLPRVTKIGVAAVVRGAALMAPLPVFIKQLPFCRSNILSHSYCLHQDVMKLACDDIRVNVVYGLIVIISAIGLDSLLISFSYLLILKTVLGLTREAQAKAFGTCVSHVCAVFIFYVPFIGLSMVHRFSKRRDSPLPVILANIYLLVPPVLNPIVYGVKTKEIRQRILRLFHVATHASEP
Assay: Butyric acid olfactory receptor antagonist cell-based dose-response vs butyric acid EC80
Settings: Table 21
MEASURED_ATTRIBUTE: Inhibition(%)
# output: bare number, implied unit %

See these solved cases before continuing.
# COMPOUND, TEST_SYSTEM, Inhibition(%)
rows = [
    ("CC(=O)OC(C)C1CC(C)C23CCC(CC12)C3 (centres unmarked)", "OR51E1 olfactory receptor (Homo sapiens, UniProt Q8TCB6)", 23),
    ("CC(=O)[C@@]1(C)C(C)[C@H](C)[C@@]23CC[C@H](CC12)C3 (some centres unmarked)", "OR51E1 olfactory receptor (Homo sapiens, UniProt Q8TCB6)", 27),
    ("CC(=O)OC(C)C1(C)CC(C)C23CCC(CC12)C3 (centres unmarked)", "OR51E1 olfactory receptor (Homo sapiens, UniProt Q8TCB6)", 34),
]

Returns the measured Inhibition(%) for the input compound. Input: CC(=O)OCC1(C)C(C)C(C)C23CCC(CC12)C3 (centres unmarked) 27

// returns reported Inhibition(%) for input CC(=NO)C1(C)C(C)C(C)[C@]23CC[C@H](CC12)C3 (some centres unmarked) 81

// Inhibition(%) lookup, key: CC1CC(C)(C=NO)C2C[C@H]3CC[C@]12C3 (some centres unmarked) 38

Using the record for CC1C(C)C23CCC(CC2C1(C)C=O)C3 (centres unmarked) , report its Inhibition(%). 28

Fill in: Inhibition(%) of CC(=O)C1(C)CC(C)C23CCC(CC12)C3 (centres unmarked) is ___ 26

====

biological target: Olfr748 (Mus musculus); assay: Indole antagonist dose-response, cAMP HTRF in HEK293T, vs indole EC80; settings: Table 23
Sequence (E9Q9Z0 entry or part of it): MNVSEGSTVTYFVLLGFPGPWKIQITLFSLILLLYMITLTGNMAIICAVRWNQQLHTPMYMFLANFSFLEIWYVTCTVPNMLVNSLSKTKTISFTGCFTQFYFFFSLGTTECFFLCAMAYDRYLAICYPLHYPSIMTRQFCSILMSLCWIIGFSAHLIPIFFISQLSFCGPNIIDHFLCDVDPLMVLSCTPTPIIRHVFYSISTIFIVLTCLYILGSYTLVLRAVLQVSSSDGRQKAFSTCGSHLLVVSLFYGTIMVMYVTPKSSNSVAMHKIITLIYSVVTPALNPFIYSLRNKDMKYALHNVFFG
Quick list: IC50 per entry.
Quick reminder: number only, in µM, skip the unit.

Below, 2 molecules whose answers are already recorded.
# MOLECULE, UNIT_STRING, IC50
data = [
    ("CC1(C)CCC[C@]2(C)CC(=O)CC[C@@H]12 (racemic)", "µM", 106),
    ("C=C1CC[C@H]2O[C@]2(C)CC[C@@H]2[C@@H]1CC2(C)C", "µM", 121),
]

Shifting focus to the molecule that follows.
Lookup: IC50 / Olfr748 (Mus musculus) / c1nc2c(o1)CCCCCCCCCC2 216

====

target: Olfr741 (Mus musculus); test: Indole antagonist dose-response, cAMP HTRF in HEK293T, vs indole EC80; type: cell-based; conditions: Table 22, first listing
Sequence (L7N1Y5 entry or part of it): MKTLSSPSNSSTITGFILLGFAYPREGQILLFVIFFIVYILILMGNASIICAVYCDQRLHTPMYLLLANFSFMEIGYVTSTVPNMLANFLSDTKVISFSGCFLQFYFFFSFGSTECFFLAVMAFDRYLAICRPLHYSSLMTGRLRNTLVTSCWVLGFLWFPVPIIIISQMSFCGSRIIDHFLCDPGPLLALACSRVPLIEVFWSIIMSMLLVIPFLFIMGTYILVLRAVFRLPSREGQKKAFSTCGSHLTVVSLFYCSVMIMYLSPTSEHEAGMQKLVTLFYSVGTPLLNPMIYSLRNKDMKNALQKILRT
MEASURED_ATTRIBUTE: Olfr741 % Inhibition (%)
Give a bare numeral; the unit % is implied.

What measured Olfr741 % Inhibition goes with C=C1CC[C@H]2O[C@]2(C)CC[C@@H]2[C@@H]1CC2(C)C ? 59.56

Sample CC1(C)CCC[C@]2(C)CC(=O)CC[C@@H]12 (racemic) — what was its Olfr741 % Inhibition? 96.86

I'd like to know its Olfr741 % Inhibition. The molecule in question is c1nc2c(o1)CCCCCCCCCC2 62.10

Any idea what its Olfr741 % Inhibition is? The molecule is CC1C(C)(C)C2=C(C(=O)CCC2)C1(C)C (centres unmarked) 140.61

Query: Olfr741 % Inhibition; subject: C/C=C/C(=O)C1C(C)=CCCC1(C)C (racemic) 75.65

====

biological target: Olfr739 (Mus musculus, UniProt E9Q1P0); test: Indole antagonist dose-response, cAMP HTRF in HEK293T, vs indole EC80; assay type: cell-based; details: Table 22, first listing
Sequence (E9Q1P0 entry or part of it): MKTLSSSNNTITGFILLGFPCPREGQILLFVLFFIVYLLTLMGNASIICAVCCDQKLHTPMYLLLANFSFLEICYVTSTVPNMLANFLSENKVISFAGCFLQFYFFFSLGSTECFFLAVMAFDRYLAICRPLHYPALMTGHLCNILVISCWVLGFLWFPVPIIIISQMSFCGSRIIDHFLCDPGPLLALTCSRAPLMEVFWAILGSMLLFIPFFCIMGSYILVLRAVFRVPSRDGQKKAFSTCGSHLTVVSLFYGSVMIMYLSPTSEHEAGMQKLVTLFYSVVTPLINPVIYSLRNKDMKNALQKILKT
MEASURED_ATTRIBUTE: Olfr739 % Inhibition (%)
Enter your answer as a number in %; do not include the unit.

The cases that follow already have their Olfr739 % Inhibition on record.
# MOLECULE, UNIT_STRING, Olfr739 % Inhibition
data = [
    ("C=C1CC[C@H]2O[C@]2(C)CC[C@@H]2[C@@H]1CC2(C)C", "%", 102.21),
    ("CC(C)(C)C1CCC(=O)CC1", "%", 60.32),
    ("CC1(C)CCC[C@]2(C)CC(=O)CC[C@@H]12 (racemic)", "%", 68.44),
]

Fill blank: measured Olfr739 % Inhibition of the molecule c1nc2c(o1)CCCCCCCCCC2 is ____. 61.91
